System: MDA-MB-435
TEST SUMMARY: NCI tumour cell line growth inhibition, 48 h
ASSAY READOUT: TGI (µM)
Give the quantity in µM, number only.

Example results:
>  <MOLECULE>
CC1=C(CO)C2=C(C)C3(CC3)[C@@](C)(O)C(=O)C2=C1

>  <TGI / µM>
5.81

$$$$
>  <MOLECULE>
O=C1c2cc3c(cc2-c2c1c1cc(Cl)c(Cl)cc1c(=O)n2C[C@H](O)CO)OCO3

>  <TGI / µM>
0.168

$$$$
>  <MOLECULE>
O=S(=O)(Nc1ccc(Cl)cc1Cl)c1ccc(-c2cnc(C3CC3)o2)cc1

>  <TGI / µM>
0.727

$$$$
>  <MOLECULE>
CSc1ccsc1-c1sc(-c2cc(SC)c(-c3sc(-c4cc(SC)c(-c5sccc5SC)s4)cc3SC)s2)cc1SC

>  <TGI / µM>
56.5

$$$$

Give me measured TGI, please, for this molecule: COc1ccc(C(O)(CCC(C)C)C(CN2CCOCC2)c2ccc(Cl)cc2)cc1 (configuration not stated)
37.3

Identify TGI associated with the molecule FC(F)(F)c1ccc2c(c1)nc(-c1ccc(Cl)cc1)n2CC1CCCN2CCCCC12 (configuration not stated)
35.8
